- System: HCT-116 (colorectal cancer)
- test-summary: MTT cytotoxicity assay, HCT-116
- Format: cell-based, human
- settings: Homo sapiens, HCT-116, 72 h, MTT, 72 h, colorectal cancer cell line HCT-116; read-out: IC50 against HCT-116
pIC50: −log10 of the molar value.
Listed here are compounds together with their documented pIC50.
value-type: pIC50

COc1ccc(/C=C2\SC(=O)N(Cc3nnc(COc4cccc(Cl)c4)o3)C2=O)cc1	4.26
COc1ccc(/C=C2\SC(=O)N(Cc3nnc(-c4cccc(C)c4)o3)C2=O)cc1	4.40
COc1ccc(/C=C2\SC(=O)N(Cc3nnc(-c4ccccc4)o3)C2=O)cc1	4.24
COc1ccc(/C=C2\SC(=O)N(Cc3nnc(-c4ccccc4C)o3)C2=O)cc1	4.23
COc1ccc(/C=C2\SC(=O)N(Cc3nnc(COc4cccc5ccccc45)o3)C2=O)cc1	4.16
COc1ccc(/C=C2\SC(=O)N(Cc3nnc(COc4cccc5cccnc45)o3)C2=O)cc1	4.20
COc1ccc(/C=C2\SC(=O)N(Cc3nnc(-c4ccccc4O)o3)C2=O)cc1	4.23
COc1ccc(/C=C2\SC(=O)N(Cc3nnc(-c4cccc([N+](=O)[O-])c4)o3)C2=O)cc1	4.37
COc1ccc(/C=C2\SC(=O)N(Cc3nnc(-c4cccc(Cl)c4)o3)C2=O)cc1	4.25
COc1ccc(/C=C2\SC(=O)N(Cc3nnc(COc4ccccc4)o3)C2=O)cc1	4.17
O=c1[nH]cc(F)c(=O)[nH]1 [Compound 5-FU, 5-fluorouracil, reference compound]	4.39
COc1ccc(/C=C2\SC(=O)N(Cc3nnc(-c4ccccc4Cl)o3)C2=O)cc1	4.89
COc1ccc(/C=C2\SC(=O)N(Cc3nnc(-c4ccc(C)cc4)o3)C2=O)cc1	4.17
COc1ccc(/C=C2\SC(=O)N(Cc3nnc(-c4ccc(Br)cc4)o3)C2=O)cc1	4.79
